All values here come from patent US20260224460A1.

# Tested on: Collagen1 gene expression (COL1A1) in WS1 cells
# test.details: Collagen1 (COL1A1) gene expression by real time PCR in WS1 human dermal fibroblasts
# Format: cell-based
# experimental.parameters: Table 2 (lysine series), 24 hours treatment, actives in wt %, fold change vs untreated control (1.0), normalized to GAPDH
API: label(entry) gives yes if the entry's Gene expression (Collagen1) is strictly smaller than 2; on equality or larger values it gives no.

Input O=C(O)CCCCCCC(=O)O [Example J2, Suberic acid] ; condition: Gene expression (Collagen1) strictly below 2. Does it hold?
no

Input COC(=O)CCCCCC(=O)OC [Example H2, Dimethyl pimelate] ; condition: Gene expression (Collagen1) strictly below 2. Does it hold?
no

Input COC(=O)CCCCCC(=O)OC [Example H3, Dimethyl pimelate] ; condition: Gene expression (Collagen1) strictly below 2. Does it hold?
no

Input O=C(O)CCCCCCCC(=O)O [Example K2, Azeleic acid] ; condition: Gene expression (Collagen1) strictly below 2. Does it hold?
yes

Input O=C(O)CCCCCC(=O)O [Example G3, Pimelic acid] ; condition: Gene expression (Collagen1) strictly below 2. Does it hold?
no

Input O=C(O)CCCCCCCC(=O)O [Example K1, Azeleic acid] ; condition: Gene expression (Collagen1) strictly below 2. Does it hold?
yes

Input COC(=O)CCCCCC(=O)OC [Example H1, Dimethyl pimelate] ; condition: Gene expression (Collagen1) strictly below 2. Does it hold?
yes

Input O=C(O)CCCCCC(=O)O [Example G1, Pimelic acid] ; condition: Gene expression (Collagen1) strictly below 2. Does it hold?
yes

Input O=C(O)CCCCCCC(=O)O [Example J3, Suberic acid] ; condition: Gene expression (Collagen1) strictly below 2. Does it hold?
yes

* * *

Exercise: for every item that follows, state its recorded Gene expression (Collagen1).
# Tested on: Collagen1 gene expression (COL1A1) in WS1 cells
# test.details: Collagen1 (COL1A1) gene expression by real time PCR in WS1 human dermal fibroblasts
# Assay type: cell-based
# experimental.parameters: Table 2 (lysine series), 24 hours treatment, actives in wt %, fold change vs untreated control (1.0), normalized to GAPDH
# respond with the number and nothing more

# Gene expression (Collagen1) lookup, item `NCCCC[C@H](N)C(=O)O`
0.8

# Gene expression (Collagen1) lookup, item O=C(O)CCCCCC(=O)O [Example G2, Pimelic acid]
2.4

# Gene expression (Collagen1) lookup, item O=C(O)CCCCCCC(=O)O [Example J1, Suberic acid]
1.7
